tested_on: α4β1 integrin (Jurkat T-cell adhesion to IL-1 stimulated endothelial cell monolayers) (Homo sapiens, UniProt P05556+P13612)
Construct: a T-cell line, Jurkat, known to express the α4β1 integrin
Sequence (P13612 34-1032): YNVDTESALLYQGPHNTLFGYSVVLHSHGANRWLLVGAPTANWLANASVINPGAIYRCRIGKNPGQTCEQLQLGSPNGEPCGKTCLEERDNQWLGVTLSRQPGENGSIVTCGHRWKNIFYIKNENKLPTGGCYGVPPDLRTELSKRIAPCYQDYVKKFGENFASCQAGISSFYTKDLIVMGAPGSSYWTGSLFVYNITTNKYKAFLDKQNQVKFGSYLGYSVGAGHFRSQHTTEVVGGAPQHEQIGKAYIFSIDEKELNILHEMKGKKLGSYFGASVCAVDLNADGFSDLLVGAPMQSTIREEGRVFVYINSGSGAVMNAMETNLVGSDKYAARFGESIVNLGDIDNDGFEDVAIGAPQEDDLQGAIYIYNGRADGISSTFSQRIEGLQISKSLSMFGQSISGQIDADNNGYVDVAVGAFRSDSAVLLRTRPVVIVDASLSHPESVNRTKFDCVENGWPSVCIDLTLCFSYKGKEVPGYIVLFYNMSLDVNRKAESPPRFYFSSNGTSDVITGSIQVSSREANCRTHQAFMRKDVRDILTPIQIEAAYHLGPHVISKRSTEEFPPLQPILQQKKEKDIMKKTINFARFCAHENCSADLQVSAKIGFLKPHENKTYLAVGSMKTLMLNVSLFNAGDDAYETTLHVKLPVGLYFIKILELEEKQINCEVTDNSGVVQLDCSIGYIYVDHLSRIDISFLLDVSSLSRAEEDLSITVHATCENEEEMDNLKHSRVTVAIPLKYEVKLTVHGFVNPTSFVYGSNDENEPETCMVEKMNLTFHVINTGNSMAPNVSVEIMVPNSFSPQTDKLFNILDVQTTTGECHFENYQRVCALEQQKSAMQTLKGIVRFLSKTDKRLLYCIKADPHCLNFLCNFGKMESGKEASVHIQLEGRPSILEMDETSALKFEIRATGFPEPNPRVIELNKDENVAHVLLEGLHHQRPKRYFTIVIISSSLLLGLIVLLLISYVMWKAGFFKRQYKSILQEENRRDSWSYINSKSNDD
Sequence (P05556 21-798): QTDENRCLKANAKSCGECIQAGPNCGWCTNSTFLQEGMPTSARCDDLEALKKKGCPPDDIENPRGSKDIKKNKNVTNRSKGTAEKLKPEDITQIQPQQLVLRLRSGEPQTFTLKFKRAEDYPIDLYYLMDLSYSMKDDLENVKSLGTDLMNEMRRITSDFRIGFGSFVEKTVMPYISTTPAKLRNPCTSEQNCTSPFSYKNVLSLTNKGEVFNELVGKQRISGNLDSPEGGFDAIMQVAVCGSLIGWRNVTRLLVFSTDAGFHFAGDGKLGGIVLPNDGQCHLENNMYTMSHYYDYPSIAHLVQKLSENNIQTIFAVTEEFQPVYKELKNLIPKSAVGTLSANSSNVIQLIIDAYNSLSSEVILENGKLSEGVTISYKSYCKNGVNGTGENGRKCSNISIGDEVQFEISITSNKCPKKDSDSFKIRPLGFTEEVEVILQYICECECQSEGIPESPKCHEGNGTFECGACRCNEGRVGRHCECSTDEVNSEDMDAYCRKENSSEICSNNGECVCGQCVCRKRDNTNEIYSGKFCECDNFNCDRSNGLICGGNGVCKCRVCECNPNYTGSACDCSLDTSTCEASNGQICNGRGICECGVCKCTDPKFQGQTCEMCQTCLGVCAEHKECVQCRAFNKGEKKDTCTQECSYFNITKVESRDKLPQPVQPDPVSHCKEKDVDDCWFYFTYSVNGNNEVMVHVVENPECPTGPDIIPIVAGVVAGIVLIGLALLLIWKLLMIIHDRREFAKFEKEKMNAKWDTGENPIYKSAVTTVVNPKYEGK
run_description: Jurkat-Endothelial Cell Adhesion Assay (Jurkat EC)
cond: Jurkat cells on IL-1 stimulated HUVEC monolayers
pIC50: −log10 of the molar value.
measurement_label: pIC50

Example entries begin here.
>>> experimental_result("CC1(C)[C@@H](C(=O)N[C@@H](Cc2cn(Cc3c(Cl)cccc3Cl)cn2)C(=O)O)CC[C@@]1(C)C(=O)O")
"5.30 to 6.10"
>>> experimental_result("CC(C)COC(=O)Nc1ccc(C[C@H](NC(=O)[C@H]2CC[C@@](C)(C(=O)O)C2(C)C)C(=O)O)cc1")
"5.30 to 6.10"
>>> experimental_result("CC1(C)[C@@H](C(=O)N[C@@H](Cc2ccc(NC(=O)Cc3ccccc3)cc2)C(=O)O)CC[C@@]1(C)C(=O)O")
"5.30 to 6.10"
>>> experimental_result("CC1(C)[C@@H](C(=O)N[C@@H](Cc2cn(Cc3ccc(Cl)c(Cl)c3)cn2)C(=O)O)CC[C@@]1(C)C(=O)O")
"5.30 to 6.10"
>>> experimental_result("CC1(C)[C@@H](C(=O)N[C@@H](Cc2ccc(NCc3c(Cl)cccc3Cl)cc2)C(=O)O)CC[C@@]1(C)C(=O)O")
"≥ 6.10"
>>> experimental_result("CC1(C)[C@@H](C(=O)N[C@@H](Cc2cccc(OCc3ccccc3)c2)C(=O)O)CC[C@@]1(C)C(=O)O")
"5.30 to 6.10"
>>> experimental_result("CCCCC(CC)COc1ccc(CC(NC(=O)C2CCC(C)(C(=O)O)C2(C)C)C(=O)O)cc1 (centres unmarked)")
"5.00 to 5.30"

// next item, pIC50 requested
Query: Output measured pIC50 for this item: CC1(C)[C@@H](C(=O)O)CC[C@@]1(C)C(=O)N[C@@H](Cc1ccc(OCc2c(Cl)cccc2Cl)cc1)C(=O)O
Result: 5.30 to 6.10

====

tested_on: α4β1 integrin (Jurkat T-cell adhesion to IL-1 stimulated endothelial cell monolayers) (Homo sapiens, UniProt P05556+P13612)
Construct: a T-cell line, Jurkat, known to express the α4β1 integrin
run_description: Jurkat-Endothelial Cell Adhesion Assay (Jurkat EC)
cond: Jurkat cells on IL-1 stimulated HUVEC monolayers
Structures can show the parent of a compound that is named as a salt.
measurement_label: IC50

>>> experimental_result("Cc1ccccc1C(=O)Nc1ccc(C[C@H](NC(=O)[C@H]2CC[C@@](C)(C(=O)O)C2(C)C)C(=O)O)cc1")
"800 to 5000 nM"
>>> experimental_result("CC1(C)[C@@H](C(=O)N[C@@H](Cc2ccc(OCc3c(Cl)cccc3Cl)c(O)c2)C(=O)O)CC[C@@]1(C)C(=O)O")
"≤ 800 nM"
>>> experimental_result("CC1(C)[C@@H](C(=O)N[C@@H](Cc2cn(Cc3ccc(Cl)cc3Cl)cn2)C(=O)O)CC[C@@]1(C)C(=O)O")
"800 to 5000 nM"
>>> experimental_result("CC1(C)[C@@H](C(=O)N[C@@H](Cc2ccc(NC(=O)c3ccccc3N)cc2)C(=O)O)CC[C@@]1(C)C(=O)O")
"800 to 5000 nM"
>>> experimental_result("CC1(C)[C@@H](C(=O)N[C@@H](Cc2ccc(NC(=O)c3c(F)cccc3F)cc2)C(=O)O)CC[C@@]1(C)C(=O)O")
"≤ 800 nM"
>>> experimental_result("Cc1cccc(C)c1C(=O)Nc1ccc(C[C@H](NC(=O)[C@H]2CC[C@@](C)(C(=O)O)C2(C)C)C(=O)O)cc1")
"≤ 800 nM"
>>> experimental_result("CC1(C)[C@@H](C(=O)N[C@@H](Cc2cn(Cc3ccccc3)cn2)C(=O)O)CC[C@@]1(C)C(=O)O")
"5000 to 10000 nM"
>>> experimental_result("CC1(C)[C@@H](C(=O)N[C@@H](Cc2ccc(OCc3c(Cl)cccc3Cl)c([N+](=O)[O-])c2)C(=O)O)CC[C@@]1(C)C(=O)O")
"800 to 5000 nM"
>>> experimental_result("CC1(C)[C@@H](C(=O)N[C@@H](Cc2ccc(NC(=O)c3cccc(C(=O)c4ccccc4)c3)cc2)C(=O)O)CC[C@@]1(C)C(=O)O")
"800 to 5000 nM"
>>> experimental_result("CC1(C)[C@@H](C(=O)N[C@@H](Cc2ccc(OCc3c(Cl)cccc3Cl)cc2)C(=O)O)CC[C@@]1(C)C(=O)O (relative stereo)")
"≤ 800 nM"

Query: Output measured IC50 for this item: CC(=O)N(Cc1c(Cl)cccc1Cl)c1ccc(C[C@H](NC(=O)[C@H]2CC[C@@](C)(C(=O)O)C2(C)C)C(=O)O)cc1
Result: 5000 to 10000 nM

Query: Output measured IC50 for this item: CC1(C)[C@@H](C(=O)N[C@@H](Cc2ccc(O)c(NC(=O)c3c(Cl)cccc3Cl)c2)C(=O)O)CC[C@@]1(C)C(=O)O
Result: 800 to 5000 nM

Query: Output measured IC50 for this item: CC1(C)[C@@H](C(=O)N[C@@H](Cc2ccc(NC(=O)c3ccc(Cl)nc3Cl)cc2)C(=O)O)CC[C@@]1(C)C(=O)O
Result: ≤ 800 nM

Query: Output measured IC50 for this item: Cc1ccc(S(=O)(=O)Nc2ccc(C[C@H](NC(=O)[C@H]3CC[C@@](C)(C(=O)O)C3(C)C)C(=O)O)cc2)cc1
Result: 800 to 5000 nM

Query: Output measured IC50 for this item: CC1(C)[C@@H](C(=O)N[C@@H](Cc2ccc(NC(=O)c3ccccc3F)cc2)C(=O)O)CC[C@@]1(C)C(=O)O
Result: 800 to 5000 nM

Query: Output measured IC50 for this item: CC1(C)[C@@H](C(=O)N[C@@H](Cc2ccc(NC(=O)c3c(Cl)cccc3Cl)cc2)C(=O)O)CC[C@@]1(C)C(=O)N1CCC[C@@H]1C(N)=O (relative stereo) [Example 212, monolithium salt]
Result: 5000 to 10000 nM

Query: Output measured IC50 for this item: CC1(C)[C@@H](C(=O)N[C@@H](Cc2ccc(NC(=O)c3cc(C(F)(F)F)ccc3Cl)cc2)C(=O)O)CC[C@@]1(C)C(=O)O
Result: ≤ 800 nM

Query: Output measured IC50 for this item: CC1(C)[C@@H](C(=O)N[C@@H](Cc2ccc(C(=O)Nc3ccccc3C(F)(F)F)cc2)C(=O)O)CC[C@@]1(C)C(=O)O
Result: ≤ 800 nM

Query: Output measured IC50 for this item: CC1(C)[C@@H](C(=O)N[C@@H](Cc2ccc(NC(=O)c3cccc4c3Cc3ccccc3-4)cc2)C(=O)O)CC[C@@]1(C)C(=O)O
Result: 5000 to 10000 nM

Query: Output measured IC50 for this item: CC1(C)[C@@H](C(=O)N[C@@H](Cc2ccc(NC(=O)c3ccccc3C(F)(F)F)cc2)C(=O)O)CC[C@@]1(C)C(=O)O
Result: ≤ 800 nM

Query: Output measured IC50 for this item: CC1(C)[C@@H](C(=O)N[C@@H](Cc2ccc(NC(=O)c3ccco3)cc2)C(=O)O)CC[C@@]1(C)C(=O)O
Result: 800 to 5000 nM

Query: Output measured IC50 for this item: COc1ccc(Cn2cnc(C[C@H](NC(=O)[C@H]3CC[C@@](C)(C(=O)O)C3(C)C)C(=O)O)c2)cc1
Result: 5000 to 10000 nM

Query: Output measured IC50 for this item: CC1(C)[C@@H](C(=O)N[C@@H](Cc2ccc(NC(=O)c3c(Cl)cccc3Cl)cc2)C(=O)O)CC[C@@]1(C)C(=O)O
Result: ≤ 800 nM

Query: Output measured IC50 for this item: CC1(C)[C@@H](C(=O)N[C@@H](Cc2ccc(NC(=O)c3cc(C(F)(F)F)ccc3C(F)(F)F)cc2)C(=O)O)CC[C@@]1(C)C(=O)O
Result: ≤ 800 nM

Query: Output measured IC50 for this item: CC1(C)[C@@H](C(=O)N[C@@H](Cc2ccc(NC(=O)c3c(Cl)cccc3Cl)cc2)C(=O)O)CC[C@@]1(C)C(=O)NCC(N)=O
Result: ≤ 800 nM
